- Study target: IDH1 R132H (Homo sapiens, UniProt O75874, R132H)
- Sequence (O75874 whole entry R132H): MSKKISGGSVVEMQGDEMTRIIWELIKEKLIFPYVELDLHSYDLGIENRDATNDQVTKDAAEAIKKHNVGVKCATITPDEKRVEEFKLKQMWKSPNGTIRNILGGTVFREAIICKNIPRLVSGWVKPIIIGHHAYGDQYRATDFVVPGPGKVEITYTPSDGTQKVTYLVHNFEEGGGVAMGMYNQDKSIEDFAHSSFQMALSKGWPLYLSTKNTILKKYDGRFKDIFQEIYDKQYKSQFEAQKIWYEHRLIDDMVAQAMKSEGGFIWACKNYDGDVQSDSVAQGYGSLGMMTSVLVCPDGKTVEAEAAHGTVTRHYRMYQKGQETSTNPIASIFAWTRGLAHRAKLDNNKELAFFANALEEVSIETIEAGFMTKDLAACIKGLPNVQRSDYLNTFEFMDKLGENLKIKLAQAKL
- Test method notes: IDH1 R132H enzymatic assay (NADPH depletion coupled to diaphorase/resazurin)
- Assay type: biochemical
- Assay conditions: IDH1 R132H enzymatic inhibition, IC50 class
Could you please report measured IC50 for the items listed next?

INPUT: What measured IC50 goes with CC1(C)CC(=O)c2cc(-c3nc(-c4ccc(F)cc4)cs3)c(=O)n(-c3ccccc3C(F)(F)F)c2C1 [Compound 30] ?
OUTPUT: 0.3 to 1 µM

INPUT: Look at this compound and give its reported IC50. CCc1cccc(CC)c1-n1c(CC(C)C)c(C(=O)N2CCNCC2)cc(-c2nc(-c3ccc(C(=O)N4CCOCC4)cc3)c(C)s2)c1=O [Compound 87]
OUTPUT: 5 to 20 µM

INPUT: What value of IC50 has been recorded for this entry: CCc1cccc(CC)c1-n1c(C)c(C(=O)Nc2ccccc2)cc(-c2nc(-c3ccc(Cl)cc3)cs2)c1=O [Compound 180]
OUTPUT: > 20 µM

INPUT: Quick one: IC50 for CCc1cccc(CC)c1-n1c(C)c(C(=O)N2CCC(C(=O)O)C2)cc(-c2nc(-c3ccc(Cl)cc3)cs2)c1=O (centres unmarked) [Compound 36] ?
OUTPUT: > 20 µM

INPUT: Requested read-out: IC50. Entry: CCc1cccc(CC)c1-n1c(CC(C)C)c(C(=O)N2CC(C(=O)O)NCC2C)cc(-c2nc(-c3ccc(Cl)cc3)cs2)c1=O (centres unmarked) [Compound 206]
OUTPUT: 0.3 to 1 µM

INPUT: I'd like to know its IC50. The compound in question is CCc1cccc(CC)c1-n1c(C)c(C(=O)NCC(N)=O)cc(-c2nc(-c3ccc(Cl)cc3)cs2)c1=O [Compound 260]
OUTPUT: 1 to 5 µM

INPUT: Which IC50 is reported for this compound? CCc1cccc(CC)c1-n1c(C(C)C)c(C(=O)N2CCN[C@H](CO)C2)cc(-c2nc(-c3ccc(Cl)cc3)cs2)c1=O [Compound 252]
OUTPUT: 0.3 to 1 µM

INPUT: Suppose we examine the compound CCc1cccc(CC)c1-n1c(C)c(C(=O)N[C@H](C)CO)cc(-c2nc(-c3ccc(Cl)cc3)cs2)c1=O [Compound 176] ; what IC50 value has been reported?
OUTPUT: 1 to 5 µM

INPUT: Return reported IC50; argument: CCc1cccc(F)c1-n1c(C=C(C)C)c(C(=O)N2CCNCC2)cc(-c2nc(-c3ccc(Cl)cc3)cs2)c1=O [Compound 655]
OUTPUT: < 0.3 µM

INPUT: Reported IC50 for CCc1cccc(CC)c1-n1c(C(C)C)c(C(=O)N[C@H](C)CO)cc(-c2nc(-c3ccc(Cl)cc3)cs2)c1=O [Compound 47] : what is it?
OUTPUT: 1 to 5 µM

INPUT: Given the compound CCc1cccc(CC)c1-n1c2c(cc(-c3nc(-c4ccc(C(=O)O)cc4)cs3)c1=O)C(=O)CC(C)(C)C2 [Compound 162] , what is its reported IC50?
OUTPUT: > 20 µM

INPUT: Entry under review: CCc1cccc(CC)c1-n1c(CC(C)C)c(C(=O)N2CCNCC2C(=O)O)cc(-c2nc(-c3ccc(Cl)cc3)cs2)c1=O (centres unmarked) [Compound 75] . Reported IC50?
OUTPUT: 1 to 5 µM

INPUT: Requested field: IC50. Item: CCc1cccc(CC)c1-n1c(CC(C)C)c(C(=O)N2CCNCC2)cc(-c2nc(-c3ccc(Cl)c(C)c3)c(C)s2)c1=O [Compound 624]
OUTPUT: 0.3 to 1 µM

INPUT: If you can, please state the reported IC50 value of CCc1cccc(CC)c1-n1c(CC(C)C)c(C(=O)N2C[C@@H](C)N[C@@H](C)C2)cc(-c2nc(-c3ccc(Cl)cc3)cs2)c1=O [Compound 112] .
OUTPUT: 0.3 to 1 µM

INPUT: Entry COc1ccc(N)cc1-n1c2c(cc(-c3nc(-c4ccc(Cl)cc4)cs3)c1=O)C(=O)CC(C)(C)C2 [Compound 122] has what IC50?
OUTPUT: 1 to 5 µM

INPUT: What value of IC50 has been recorded for this entry: CCc1cccc(CC)c1-n1c(CC(C)C)c(C(=O)N2CC(O)C2)cc(-c2nc(-c3ccc(Cl)cc3)cs2)c1=O [Compound 63]
OUTPUT: 1 to 5 µM

INPUT: Query: IC50; subject: O=C1CCCc2c1cc(-c1nc(-c3ccc(Cl)cc3)cs1)c(=O)n2-c1ccc(CO)cc1 [Compound 649]
OUTPUT: > 20 µM

INPUT: Which measured IC50 value corresponds to CCc1cccc(CC)c1-n1c(CC(C)C)c(C(=O)N2CCNCC2)cc(-n2cc(-c3ccc(Cl)cc3)cn2)c1=O [Compound 658] ?
OUTPUT: 5 to 20 µM

INPUT: # IC50 lookup, item COc1ccc(OC)c(-n2c(C)ccc(-c3nc(-c4ccc(Cl)cc4)cs3)c2=O)c1 [Compound 62]
OUTPUT: > 20 µM

INPUT: What does the record list as IC50 for CCc1ncc(C)cc1-n1c(C=C(C)C)c(C(=O)N2CCNCC2)cc(-c2nc(-c3ccc(Cl)cc3)cs2)c1=O [Compound 330] ?
OUTPUT: < 0.3 µM

INPUT: Which IC50 value is on record for CCc1cccc(CC)c1-n1c(C)c(C(=O)N2CCNC[C@H]2C)cc(-c2nc(-c3ccc(Cl)cc3)cs2)c1=O [Compound 142] ?
OUTPUT: < 0.3 µM

INPUT: Entry CC(C)Oc1ccccc1-n1c2c(cc(-c3nc(-c4ccc(Cl)cc4)cs3)c1=O)C(=O)CC(C)(C)C2 [Compound 130] : reported IC50 = ?
OUTPUT: 1 to 5 µM

INPUT: Could you share which IC50 value was measured for CCc1cccc(CC)c1-n1c(CCOC)c(C(=O)N2CCNCC2)cc(-c2nc(-c3ccc(Cl)cc3)cs2)c1=O [Compound 278] ?
OUTPUT: < 0.3 µM
